Just for reference, ChEMBL document CHEMBL1157292 is where these values come from.

Test system: L1210
PROTOCOL_TEXT: Cytotoxicity against mouse L1210 cells
Assay type: functional, cell-based
EXPERIMENTAL_READOUT: pIC50
When answering, recall that pIC50 equals minus log10 of the concentration in mol/L, and write that number alone.

Prompt: I'd like to know its pIC50. The compound in question is `C/C(=C\Cn1c[n+](C)c2ncnc(N)c21)CC[C@@]1(C)[C@H](C)CC[C@@]2(C)C(COC(=O)c3cc(Br)c[nH]3)=CCC[C@@H]12`
Response: 5.32

----------
System: Mycobacterium tuberculosis
PROTOCOL_TEXT: Antibacterial activity against Mycobacterium tuberculosis by standard broth microdilution technique
Type: functional
Measured MIC accompanies every entry in the list below.
All answers are understood in µg/mL, so give the number only.

{"CHEMICAL_STRING": "CO[C@H]1/C=C/O[C@@]2(C)Oc3c(C)c(O)c4c(O)c(c(/C=N/N5CCN(C)CC5)c(O)c4c3C2=O)NC(=O)/C(C)=C\\C=C\\[C@H](C)[C@H](O)[C@@H](C)[C@@H](O)[C@@H](C)[C@H](OC(C)=O)[C@@H]1C", "MEASURED_ON": "Mycobacterium tuberculosis", "EXPERIMENTAL_READOUT": "MIC", "RESULT": 0.25}

Kindly consider the entry below.
Prompt: Any idea what its MIC is? The compound is `C=C1CC[C@H]2C(C)(C)CCC[C@]2(C)[C@H]1CC/C(C)=C/Cn1c[n+](C)c2nc[n-]/c(=N\OC(C)(C)C)c21`
Response: 3.13
